# System: PC12 cells
# assay method text: Evaluation using PC12 cells; immunostaining method for MAPK phosphorylation
# Type: cell-based
# test conditions: 125 μg/mL, 30 minutes
Exam item: assign Yes to entries whose Rate of pMAPK-positive cells (%) is below 20% and No to entries at or above 20%. Note that a value of exactly 20% receives No.

Here are 8 compounds together with their reported answers.
CCCCCCC/C=C/C(=O)OCCN(C)C [Compound 1, (E)-2-(dimethylamino)ethyl dec-2-enoate] = Yes
CCCCCCC/C=C/C(=O)N(CC)CCN(C)C = No
CCCCCCC/C=C/C(=O)N(CC)CCN(CC)CC = Yes
CCCCCCC/C=C/C(=O)OCCCCN(C)C [Compound 4, (E)-4-(dimethylamino)butyl dec-2-enoate] = No
CCCCCCC/C=C/C(=O)NCCN(C)C = No
CCCCCCC/C=C/C(=O)OCCN(CC)CC [Compound 6, (E)-2-(diethylamino)ethyl dec-2-enoate] = No
CCCCCCC/C=C/C(=O)OCC(C)(C)CN(C)C = No
CCCCCCC/C=C/C(=O)N(CCN(C)C)CCN(C)C = No

Criterion: Rate of pMAPK-positive cells (%) strictly below 20%. Is it met by CCCCCCC/C=C/C(=O)OCCOCCN(C)C ?
Yes

Criterion: Rate of pMAPK-positive cells (%) strictly below 20%. Is it met by CCCCCCC/C=C/C(=O)OCCCN(C)C [Compound 2, (E)-3-(dimethylamino)propyl dec-2-enoate] ?
Yes

Criterion: Rate of pMAPK-positive cells (%) strictly below 20%. Is it met by CCCCCCC/C=C/C(=O)NCCN(CC)CC ?
No

###

Recorded Rate of pMAPK-positive cells (%) by entry
# System: PC12 cells
# assay method text: Evaluation using PC12 cells; immunostaining method for MAPK phosphorylation
# Assay type: cell-based
# test conditions: 125 μg/mL, 30 minutes
Just the number please, in %, no unit attached.

CCCCCCC/C=C/C(=O)N(CCN(CC)CC)CCN(CC)CC = 13
CCCCCCC/C=C/C(=O)N(C)CCN(C)C = 7
CCCCCCC/C=C/C(=O)OC(C)CN(C)C (stereo not shown) = 12
CCCCCCC/C=C/C(=O)SCCN(C)C = 46
CCCCCCC/C=C/C(=O)N(CC)CC [Compound 31, (E)-N,N-diethyl dec-2-enamide] = 95
CCCCCCC/C=C/C(=O)N(CCCN(C)C)CCCN(C)C = 33

We next turn to a different molecule, shown below.
Record CCCCCCC/C=C/C(=O)OCCOCCN(CC)CC , field Rate of pMAPK-positive cells (%): 35
